B1: IKZF1 (parent)
chain: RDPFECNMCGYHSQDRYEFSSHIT

- Variants of: B1
- Test Method Notes: protein stability index of a GFP-peptide fusion (GPS, HEK-293T) (PSI 1-6); higher = more stable;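 also: lentivirally expressed fusions sorted by FACS into six bins by GFP to DsRed ratio, PSI derived from sequencing read proportions per bin multiplied by bin number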
- Condition Context: c terminus: a fixed tail appended
Entries annotated with measured protein stability index
No unit in the answer, please; the number alone is enough.

Known protein stability index results, listed for orientation:
Item Sequence	protein stability index
RDPFECNMCGYHSQDRYEFSLHIT [S21L]	2.03
RDPFECHMCGYHSQDRYEFSSHIT [N7H]	2.25
RDPFECNMCGYCSQDRYEFSSHIT [H12C]	1.82
RDPFECNMCGYHSQDRYEFSMHIT [S21M]	1.84
RDPFVCNMCGYHSQDRYEFSSHIT [E5V]	2.01

Query string: What value of measured protein stability index is listed for RDPFECYMCGYHSQDRYEFSSHIT [N7Y] ?
Result string: 1.83

Query string: Which measured protein stability index value corresponds to RDPFECNMCGYHQQDRYEFSSHIT [S13Q] ?
Result string: 2.39

Query string: Return reported protein stability index; argument: RDPAECNMCGYHSQDRYEFSSHIT [F4A]
Result string: 2.44

Query string: What value of protein stability index has been reported for the following variant? RDPFECNPCGYHSQDRYEFSSHIT [M8P]
Result string: 2.64

Query string: Find the recorded protein stability index belonging to RDPFECNMCGYHSQDRYEFSSHAT [I23A] and report it.
Result string: 2.23

Query string: Quick one: protein stability index of RDPFEINMCGYHSQDRYEFSSHIT [C6I] ?
Result string: 2.14
